system_name: Recombinant human CETP (Homo sapiens)
Construct: made in house; host or cells: CHO cells (secreted into conditioned medium)
Sequence (P11597 18-493): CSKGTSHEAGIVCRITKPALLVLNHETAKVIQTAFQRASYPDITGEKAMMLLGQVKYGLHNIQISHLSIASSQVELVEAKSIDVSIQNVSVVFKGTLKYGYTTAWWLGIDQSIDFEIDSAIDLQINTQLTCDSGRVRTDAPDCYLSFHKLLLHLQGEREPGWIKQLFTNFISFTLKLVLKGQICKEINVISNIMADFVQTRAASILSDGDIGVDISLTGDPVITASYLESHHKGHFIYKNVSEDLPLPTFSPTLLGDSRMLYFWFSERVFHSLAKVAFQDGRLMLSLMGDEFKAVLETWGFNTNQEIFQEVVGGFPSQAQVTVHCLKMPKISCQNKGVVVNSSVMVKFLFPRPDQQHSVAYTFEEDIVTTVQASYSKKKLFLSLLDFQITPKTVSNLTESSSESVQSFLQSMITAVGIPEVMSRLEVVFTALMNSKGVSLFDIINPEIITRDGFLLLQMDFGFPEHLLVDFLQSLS
method_notes: CETP in vitro assay (fluorometric assay, Roar Biomedical; cholesterol ester transfer from HDL to LDL)
Format: biochemical
measurement_context: recombinant human CETP from CHO cells; 3 hours at 37° C.; fluorescence 485/535 nm; compound concentrations between 1 nM and 30 μM; read-out: IC50 values for inhibition of CETP
pIC50: −log10 of the molar value.
Entry flag: criterion met if pIC50 reaches 7; criterion not met if it does not.

>>> label_class("CC(C)c1nc2c(c3c1[C@@H](c1ccc(S(F)(F)(F)(F)F)cc1)OC31CCOCC1)[C@@H](O)CC(C)(C)[C@H]2O [4(7)]")
"criterion met"
>>> label_class("CC(C)c1nc2c(c3c1[C@@H](c1ccc(C(F)(F)F)nc1)OC31CCOCC1)[C@@H](O)CC1(CCC1)C2 [1(52)]")
"criterion met"
>>> label_class("N#Cc1cc([C@H]2OC3(CCOCC3)c3c2c(C2CCOCC2)nc2c3[C@@H](O)CC3(CCC3)C2)ccc1C(F)(F)F [1(72)]")
"criterion met"
>>> label_class("CC1(C)Cc2nc(C3CCOCC3)c3c(c2[C@@H](O)C1)C1(CCOCC1)O[C@@H]3c1ccc(C(C)(C)C)cc1 [1(70)]")
"criterion met"
>>> label_class("CC(C)c1nc2c(c3c1[C@H](c1ccc(C(F)(F)F)c(F)c1)OC31CCOCC1)[C@@H](O)CC(C)(C)C2 [1(54)]")
"criterion not met"
>>> label_class("CC(C)c1nc2c(c3c1[C@@H](c1ccc(C(F)(F)F)cn1)OC31CCOCC1)[C@@H](O)CC(C)(C)[C@H]2O [5(4)]")
"criterion not met"
>>> label_class("CC(C)c1nc2c(c3c1[C@@H](c1ccc(C(F)(F)F)c(C#N)c1)OC31CCOCC1)[C@@H](O)CC1(CCC1)[C@H]2O [4(10)]")
"criterion met"
>>> label_class("CC(C)c1nc2c(c3c1[C@@H](c1ccc(S(F)(F)(F)(F)F)cc1)OC31CCOCC1)[C@@H](O)CC1(CCC1)C2 [1(69)]")
"criterion met"
>>> label_class("CC1(C)C[C@H](O)c2c(nc(C3CCOCC3)c3c2C2(CCCC2)O[C@@H]3c2ccc(S(F)(F)(F)(F)F)cc2)[C@@H]1O [4(6)]")
"criterion met"
>>> label_class("CC1(C)C[C@H](O)c2c(nc(C3CCOCC3)c3c2C2(CCOCC2)O[C@@H]3c2ccc(C(F)(F)F)nc2)[C@@H]1O [6(2)]")
"criterion not met"
>>> label_class("CC(C)c1nc2c(c3c1[C@@H](c1ccc(C(C)(C)C)cc1)OC31CCCC1)[C@@H](O)CC1(CCC1)C2 [1(62)]")
"criterion met"
>>> label_class("CC(C)c1nc2c(c3c1[C@@H](c1ccc(C(F)(F)F)nc1)OC31CCOCC1)[C@@H](O)CC(C)(C)[C@@H]2O [5(7)]")
"criterion not met"
>>> label_class("CC(C)c1nc2c(c3c1[C@@H](c1ccc(C(F)(F)F)nc1)OC31CCOCC1)[C@@H](O)CC1(CCC1)[C@H]2O [Example 5]")
"criterion met"
>>> label_class("CC(C)c1nc2c(c3c1[C@@H](c1ccc(C(F)(F)F)cn1)OC31CCOCC1)[C@@H](O)CC(C)(C)[C@@H]2O [5(3)]")
"criterion not met"
>>> label_class("CC1(C)Cc2nc(C3CCOCC3)c3c(c2[C@@H](O)C1)C1(CCOCC1)O[C@@H]3c1ccc(C(F)(F)F)nc1 [1(76)]")
"criterion not met"
>>> label_class("O[C@H]1CC2(CCC2)[C@@H](O)c2nc(C3CCOCC3)c3c(c21)C1(CCOCC1)O[C@@H]3c1ccc(C(F)(F)F)cn1 [6(1)]")
"criterion not met"
>>> label_class("CC(C)c1nc2c(c3c1[C@@H](c1ccc(C(F)(F)F)cc1)OC31CCOCC1)[C@@H](O)CC(C)(C)[C@H]2O [4(2)]")
"criterion met"
>>> label_class("CC(C)c1nc2c(c3c1[C@@H](c1ccc(C(F)(F)F)cc1F)OC31CCOCC1)[C@@H](O)CC1(CCC1)C2 [1(51)]")
"criterion met"
>>> label_class("CC(C)c1nc2c(c3c1[C@@H](c1ccc(C(F)(F)F)c(C#N)c1)OC31CCOCC1)[C@@H](O)CC(C)(C)[C@H]2O [4(15)]")
"criterion met"
>>> label_class("O[C@H]1CC2(CCC2)Cc2nc(C3CCOCC3)c3c(c21)C1(CCOCC1)O[C@@H]3c1ccc(C(F)(F)F)cn1 [1(75)]")
"criterion not met"
>>> label_class("CC1(C)C[C@H](O)c2c(nc(C3CCOCC3)c3c2C2(CCOCC2)O[C@@H]3c2ccc(C(F)(F)F)cc2)[C@@H]1O [4(11)]")
"criterion not met"
>>> label_class("CC(C)c1nc2c(c3c1[C@@H](c1ccc(C(C)(C)C)cc1)OC31CCOCC1)[C@@H](O)CC1(CCC1)C2 [1(63)]")
"criterion met"

---

system_name: Recombinant human CETP (Homo sapiens)
method_notes: CETP in vitro assay (fluorometric assay, Roar Biomedical; cholesterol ester transfer from HDL to LDL)
measurement_context: recombinant human CETP from CHO cells; 3 hours at 37° C.; fluorescence 485/535 nm; compound concentrations between 1 nM and 30 μM; read-out: IC50 values for inhibition of CETP
Simple rule here: IC50 less than 0.09 µM is satisfied, otherwise not satisfied.

>>> label_class("CC(C)c1nc2c(c3c1[C@@H](c1ccc(C(F)(F)F)cc1)OC31CCOCC1)[C@@H](O)CC1(CCC1)[C@H]2O")
"satisfied"
>>> label_class("CC(C)c1nc2c(c3c1[C@@H](c1ccc(C4(C)COC4)cc1)OC31CCOCC1)[C@@H](O)CC(C)(C)C2")
"satisfied"
>>> label_class("CC(C)c1nc2c(c3c1[C@@H](c1ccc(C(F)(F)F)nc1)OC31CCOCC1)[C@@H](O)CC(C)(C)C2")
"not satisfied"
>>> label_class("CC1(C)C[C@H](O)c2c(nc(C3CCOCC3)c3c2C2(CCOCC2)O[C@@H]3c2ccc(S(F)(F)(F)(F)F)cc2)[C@@H]1O")
"satisfied"
>>> label_class("N#Cc1cc([C@H]2OC3(CCOCC3)c3c2c(C2CCOCC2)nc2c3[C@@H](O)CC3(CCC3)[C@H]2O)ccc1C(F)(F)F")
"satisfied"
